I'd appreciate it if you could supply IC50 values for the items below.
# Tested target: TGF-beta receptor type-1 (Homo sapiens, UniProt P36897)
# Sequence (P36897 whole entry): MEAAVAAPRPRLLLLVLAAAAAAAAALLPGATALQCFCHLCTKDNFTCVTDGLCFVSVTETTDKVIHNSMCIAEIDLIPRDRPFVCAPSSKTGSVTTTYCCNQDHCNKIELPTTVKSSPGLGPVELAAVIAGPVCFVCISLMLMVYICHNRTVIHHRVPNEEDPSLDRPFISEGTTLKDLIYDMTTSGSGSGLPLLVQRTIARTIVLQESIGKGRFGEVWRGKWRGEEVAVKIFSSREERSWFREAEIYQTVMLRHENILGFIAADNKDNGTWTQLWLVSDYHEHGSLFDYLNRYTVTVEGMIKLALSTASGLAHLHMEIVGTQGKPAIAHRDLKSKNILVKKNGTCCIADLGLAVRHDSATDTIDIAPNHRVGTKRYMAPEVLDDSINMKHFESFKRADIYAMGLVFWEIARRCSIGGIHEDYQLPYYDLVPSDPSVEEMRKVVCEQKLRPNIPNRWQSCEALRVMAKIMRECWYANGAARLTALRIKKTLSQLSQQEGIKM
# Procedure text: Inhibition of human ALK5 using GST-tagged Smad3 as substrate assessed as substrate phosphorylation after 30 mins by ELISA
Answers are plain numbers, in µM.

These recorded examples may help you get a feel for the data.
Compound string	IC50 / µM
Cc1csc(-c2nc(C3CCOCC3)[nH]c2-c2ccc3ncsc3c2)n1	0.021
Cc1csc(-c2nc(C3CCCCC3)[nH]c2-c2ccc3ncsc3c2)n1	0.012
CCCCCOC(=O)NCc1nc(-c2nc(C)cs2)c(-c2ccc3ncsc3c2)[nH]1	0.011
Cc1csc(-c2nc(CNC(=O)OC(C)C)[nH]c2-c2ccc3ncsc3c2)n1	0.0086
Cc1csc(-c2nc(CNC(=O)OCC(C)C)[nH]c2-c2ccc3ncsc3c2)n1	0.0055
Cc1csc(-c2nc(C(F)(F)F)[nH]c2-c2ccc3ncsc3c2)n1	0.0058

Fill in IC50 for each of the 3 compounds listed.
1. CCC(=O)NCCc1nc(-c2nc(C)cs2)c(-c2ccc3ncsc3c2)[nH]1
2. CCNC(=O)NCc1nc(-c2nc(C)cs2)c(-c2ccc3ncsc3c2)[nH]1
3. Cc1csc(-c2nc(CN3CCOC3=O)[nH]c2-c2ccc3ncsc3c2)n1

Result block:
[0.025, 0.011, 0.0081]

Query block: Report IC50 for CC(=O)NCCCc1nc(-c2nc(C)cs2)c(-c2ccc3ncsc3c2)[nH]1 please.
Result block: 0.026
